Test system: NCI-H2122 cells
assay-text: NCI-H2122 CTG proliferation assay (120 h) (NSCLC, G12C)
Type: cell-based
condition-description: Homo sapiens
pIC50: −log10 of the molar value.
Returns one of y or n; y when pIC50 is >= 6.

{"structure-smiles": "C[C@H](Oc1cc(-c2ccn(Cc3ncco3)n2)nc(-c2noc3c2CCC[C@@]32CCCc3sc(N)c(C#N)c32)n1)[C@@H]1CCCN1C", "class-assignment": "y"}
{"structure-smiles": "C[C@@H]1CN(c2cc(O[C@@H](C)[C@@H]3CCCN3C)nc(-c3noc4c3CCC[C@@]43CCCc4sc(N)c(C#N)c43)n2)CCN1", "class-assignment": "n"}
{"structure-smiles": "C[C@H](Oc1cc(-n2cc(C(=O)N(C)C)nn2)nc(-c2noc3c2CCC[C@@]32CCCc3sc(N)c(C#N)c32)n1)[C@@H]1CCCN1C", "class-assignment": "y"}
